This collection of values is drawn from the METLIN SMRT retention time set (Domingo-Almenara et al. 2019).

test: gradient 5% acetonitrile 3 min, to 50% in 2 min, to 85% in 15 min, held 3 min, 100 µL/min; conditions: column: Zorbax Extend-C18 2.1 x 50 mm; eluents: water / acetonitrile, 0.1% formic acid
Decide by RP-LC retention time: equal to or exceeding 800 s means satisfied, less means not satisfied.

MOLECULE	DISCRETE_LABEL
CC(C)NC(=O)CN1CCN(c2cc(C(=O)O)c3cc(NC(=O)c4ccc(F)cc4)ccc3n2)CC1	not satisfied
CC(C)Cn1nc(CNC(=O)CSc2ccncc2)c2ccccc21	not satisfied
CC1=C(c2ccc(C(C)C)cc2)S(=O)(=O)N=C1N1CCC(C(=O)NCCc2ccco2)CC1	satisfied
Cc1ccc(C(C)NC(=O)c2ccc(CN3CCN(C(C)C)C(=O)C3=O)cc2)c(C)c1 (configuration not stated)	not satisfied
Cc1noc(C)c1S(=O)(=O)Nc1cc2c3c(c1)CC(=O)N3CCC2	not satisfied
Cc1cc2c(=O)n(CC(=O)Nc3cc(Cl)ccc3C)ccc2s1	satisfied

###

# RP-LC retention time per entry
assay: gradient 5% acetonitrile 3 min, to 50% in 2 min, to 85% in 15 min, held 3 min, 100 µL/min; settings: column: Zorbax Extend-C18 2.1 x 50 mm; eluents: water / acetonitrile, 0.1% formic acid

COMPOUND	RP-LC retention time [s]
COc1ccccc1-c1nnc(NC(=O)c2ccc3c(c2)CCCC3)o1	822
Cc1oc(C2CCN(S(=O)(=O)c3cccc(F)c3)CC2)nc1C(=O)N(C)C	798
COc1ccc(-c2noc(C3CCCN3C(=O)c3ccco3)n2)cc1 (configuration not stated)	809
CC(C)[C@H](CO)Nc1nc(Sc2cccc(N)c2)c2ncn(C(C)C)c2n1	706
O=C(c1cn2nc(Cl)ccc2n1)N1CCN(c2ccc(Cl)cc2)CC1	858
O=C(Cn1cnc2onc(-c3ccc(Cl)cc3)c2c1=O)N1CCCc2ccccc21	1100
Cc1ccn2cc(-c3ccc(NC(=O)c4ccccc4C(F)(F)F)cc3)nc2n1	664

###

# RP-LC retention time per entry
test: gradient 5% acetonitrile 3 min, to 50% in 2 min, to 85% in 15 min, held 3 min, 100 µL/min; conditions: column: Zorbax Extend-C18 2.1 x 50 mm; eluents: water / acetonitrile, 0.1% formic acid
MEASUREMENT_LABEL: RP-LC retention time

COCc1cc2nn(CC(=O)Nc3ccccc3)c(=O)n2c(-c2ccccc2)n1 800 s
COc1ccc(NC(=O)c2c[nH]c3nc(C)ccc3c2=O)cc1 776 s
Cc1ccccc1Cn1nnc2cc(C(=O)N3CCN(c4ncccn4)CC3)ccc21 819 s

###

assay: gradient 5% acetonitrile 3 min, to 50% in 2 min, to 85% in 15 min, held 3 min, 100 µL/min; settings: column: Zorbax Extend-C18 2.1 x 50 mm; eluents: water / acetonitrile, 0.1% formic acid

MOLECULE	RP-LC retention time (s)
Cc1ccc(Cn2nccc2NC(=O)c2cc(=O)c3ccccc3o2)cc1	816
O=C(NCC1CCCO1)c1nc2ccccn2c1-c1ccc(Cl)cc1 (configuration not stated)	785
COc1ccc(C)cc1NC(=O)N1CCC(OC2CCN(S(C)(=O)=O)CC2)CC1	810
Cc1ccc(-n2nc(N3CCN(C(=O)Nc4ccccc4)CC3)ccc2=O)cc1	780
CCC(=O)Nc1ccc(SCc2nnc(-c3ccccc3)o2)cc1	811
CCc1noc(-c2ccnc(-n3cnc(C(=O)NC(C)C)c3)c2)n1	784
Cc1ccccc1NC(=O)N1CCC(N2CCN(Cc3ccccc3)C2=O)CC1	794
